Listing of recorded viability by entry.
# ASSAY_NOTES: viability of HCT116 without oncogenic beta-catenin – human colon tumor cells, pilot screen (AID 823);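 also: 0% = wells killed by 20 µM Hyamine and 100% = untreated DMSO cell wells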
# TEST_SETTINGS: HCT116 beta-catenin knockout viability, CellTiter-Glo, 60 h; at 10 µM; stronger effect = lower value
Results filed as inconclusive are left out.
Please reply with the bare figure in % and do not write the unit itself.

Some molecules with recorded viability:
COc1ccc(OC)c(-c2cc(C(=O)N3CCN(c4ccccc4)CC3)no2)c1: 96.9
O=C1c2ccccc2C(Nc2ccc(S(=O)(=O)N3CCOCC3)cc2)N1c1cccnc1 (stereo unspecified): 102
CC1CCN(c2nc(-c3ccccc3)cc(C(F)(F)F)n2)CC1: 88.1
COc1cc2[nH]c(=O)n(Cc3ccc(C(=O)NCC4CCCO4)cc3)c(=O)c2cc1OC (stereo unspecified): 90.2

Query: Which viability reading was recorded for the molecule "Cc1c(C(=O)NCc2cccs2)oc2ccc(S(=O)(=O)N3CCOCC3)cc12" ?
Reply: 79.6

###

# ASSAY_NOTES: viability of HCT116 without oncogenic beta-catenin – human colon tumor cells, pilot screen (AID 823);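 also: 0% = wells killed by 20 µM Hyamine and 100% = untreated DMSO cell wells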
# TEST_SETTINGS: HCT116 beta-catenin knockout viability, CellTiter-Glo, 60 h; at 10 µM; stronger effect = lower value
Records with an inconclusive call do not appear. Calls of active or inactive are those of the source.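 How the source made its calls: active means cell viability at or below a set limit in both duplicate runs, the limit being the all-compound median minus 4 SD (cut at about 23% in these data, passing the limit was not always enough); inconclusive means no clear call, values can overlap the other calls; inactive means the rest.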
Listing of recorded viability by entry.

COc1ccc(C)cc1NC(=O)CSc1nnc(-c2ccccn2)n1Cc1ccco1: 95.7% (inactive)
COc1cc(Cl)c(S(=O)(=O)N2CCN(Cc3ccc4c(c3)OCO4)CC2)cc1Cl: 84.2% (inactive)
Cc1ccccc1S(=O)(=O)Cc1ccc(C(=O)N2CC(C)CC(C)C2)o1 (stereo unspecified): 103% (inactive)

Query: Which viability reading was recorded for the molecule "CCCCSc1nc2c(c(=O)[nH]c(=O)n2C)n1CCc1ccccc1" ?
Reply: 84.1% (inactive)

Query: Which viability reading was recorded for the molecule "c1ccc(CNc2ncnc3nc[nH]c23)nc1" ?
Reply: 102% (inactive)

Query: Which viability reading was recorded for the molecule "COC(=O)CNc1c(-c2ccccn2)nc2ccc(Br)cn12" ?
Reply: 89.2% (inactive)

###

# ASSAY_NOTES: MRP1 drug-resistance reversers in H69AR cells – cell-based, doxorubicin co-treatment, pilot screen (AID 601)
# TEST_SETTINGS: H69AR cells + 2 uM doxorubicin, CellTiter-Glo, 72 h; at 10 µM; stronger effect = higher value
The source made the active and inactive calls.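 How the source made its calls: active means viability loss from added drug above about 55%, and viability with drug at most 40%, in both replicates (limit read from the data, passing the limit was not always enough); inconclusive means both conditions met in only one replicate; inactive means neither replicate meets both conditions.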
VALUE_KIND: differential viability (reversal)

Some compounds with recorded differential viability (reversal):
CCOC(=O)C1=C(Cn2cnc3ccccc32)NC(=O)NC1c1cc(C)ccc1C (stereo unspecified): -17.6% (inactive)
CSc1nc2ccc(S(=O)(=O)N3CCOCC3)cc2s1: -4.54% (inactive)
CC(C)NC(=O)NC(=O)COc1cccc2c1OC(C)(C)C2: 16.9% (inactive)
CCCCNC(=O)OC(C)CNC(=O)Oc1cccc(C)c1 (stereo unspecified): 1.64% (inactive)
CCOc1ccc2cc(C#N)c(SCC(=O)N3CCC(C)CC3)nc2c1: 0.44% (inactive)

Now, please, on to the next compound.
Query: Which differential viability (reversal) reading was recorded for the compound "COc1ccc(C2(C(=O)Nc3cc(C)on3)CCOCC2)cc1" ?
Reply: 1.2% (inactive)

###

# ASSAY_NOTES: RAM pathway blockade in budding yeast – dse1pr::URA3 reporter, 5-FOA selection, pilot screen (AID 869);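 also: 0% = DMSO wells with no growth and 100% = 10 µM 1-NA-PP1 with full growth; RAM network block rescues cells from 5-FOA so hits raise OD615 growth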
# TEST_SETTINGS: S. cerevisiae dse1pr::URA3 5-FOA growth, OD615, 2 d; at 10 µM; stronger effect = higher value; strain carries analog-sensitive mutant Cbk1 kinase
VALUE_KIND: inhibition (%)
Please reply with the bare figure in % and do not write the unit itself.

O=C(NCc1ccc2c(c1)OCO2)c1nnc(Cc2ccc(F)cc2)o1: 3.56
COc1cc(C2CC(=O)c3c([nH]c(C(=O)OCCOC(C)C)c3C)C2)cc(OC)c1OC (stereo unspecified): 1.85
COc1ccc(-c2cc(CCCC(=O)NCc3ccccn3)no2)cc1: 1.08
COc1cc(Cl)c(S(=O)(=O)N2CCN(Cc3ccc4c(c3)OCO4)CC2)cc1Cl: 1.04
O=S1(=O)C=C(SCCN2CCCCC2)c2ccccc21: 1.29

Query: Which inhibition reading was recorded for the molecule "COc1cccc(NC(=O)c2ccc(S(=O)(=O)N3CCCCC3)cc2)c1" ?
Reply: 1.28

Query: Which inhibition reading was recorded for the molecule "Clc1ccccc1-c1nnc2sc(-c3ccncc3)nn12" ?
Reply: 0.635
